Attribution: the supplement of paper PMC11417369

System: PF3D7_0420300 AP2 domain 1 (GST-tagged)
Assay Details: gcPBM binding intensity (ln(normalized median fluorescence intensity)); higher = stronger DNA binding
In all, about 25,000 sequences were measured (“ln(normalized median fluorescence intensity)”: median about 9.3, highest 2% from about 10 on). Many of the other results were omitted from the sample, so the highest values are more common in it than they were.
Quantity Measured: gcPBM binding intensity (ln)

Problem: Dear colleague, I am looking for the recorded gcPBM binding intensity (ln) of the following sequence: AAAAAATTCATATATACACACACGCACATATATATA [CACACA_site4226]
Result: 9.84

Problem: How about AAAAATTTGGCATACACACACACACCCACACCCACA [CACACA_site587] ?
Result: 10.2

Problem: Check TATTTATTAAAACACACACACACACCGACAAAATAA [CACACA_site4293] too.
Result: 10.1

Problem: Queued: TAAAATAAAACAAACACACACACACCGACACAAAAA [CACACA_site5993]
Result: 10.2

Problem: Now the same for CAAAAGAAGGTAAACACACACACACCCATACAAAAA [CACACA_site3765]
Result: 10.1

Problem: Further, for CCATAAAAAGGATACACACACACACGCACATATATA [CACACA_site6550] ?
Result: 10.2

Problem: Also GGACAACAAACAAACACACACAAAAAAAAAATAAAA [CACACA_site3791] ?
Result: 9.84

Problem: Now the same for AATACTTACCAAAATACACACACACCCAAAATATAT [CACACA_site8559]
Result: 10.1

Problem: # iterate: CACAAACAAAAACACACACACACACCGACAAAAATG [CACACA_site5362]
Result: 10

---

Tested on: PF3D7_0420300 AP2 domain 1 (GST-tagged)
Assay Details: gcPBM binding intensity (ln(normalized median fluorescence intensity)); higher = stronger DNA binding
Over roughly 25,000 sequences, “ln(normalized median fluorescence intensity)” has its median near 9.3; the highest 2% begin near 10. The sample holds the highest values, similar sequences and a random draw of the others, so the mix is not that of the screen.
Could you please report measured gcPBM binding intensity (ln) for the items listed next?
Just the number, please, no unit after it.

Problem: Fill in the recorded gcPBM binding intensity (ln) for this sequence, with PF3D7_0420300 AP2 domain 1 (GST-tagged) as test system: TTATAATCAATGAATACACACATATATTTAATTAAT [CACACA_site3613]
Result: 9.47

Problem: Let us now turn to CACAGATAAATTAACACACACACACCGATATATATA [CACACA_site6049]
Result: 10.2

Problem: Okay, and AAGTAAAAAAATAGCACACACACAAAAACACCCACA [CACACA_site1291] ?
Result: 10

Problem: Continue with AAAAAACACAGACACACACACATATACATACATACA [CACACA_site2666]
Result: 10.2

Problem: Follow-up item: TACACCCATGGACACACACACACGCATAAAAAAAAA [CACACA_site4933]
Result: 9.93

Problem: Also need AAGAATCATATTTAAACACACATACAGATATATATA [CACACA_site5787] , thanks.
Result: 9.51

Problem: // next record ATACAACAGATATATACACACATATAACAATAATAA [CACACA_site7560]
Result: 9.93

Problem: Now this one: ATAAAAAGGAGACACACACACACACGCATATTTATA [CACACA_site6551]
Result: 10.3

Problem: Then TAAATAATGTAAAAAACATCATCAAAATGTTAATTA [CACACA_negctrl_site1768] ?
Result: 9.09

Problem: What do you get for TTAAACGTACATAATACACACACATGTAGACATATA [CACACA_site8635] ?
Result: 9.79

Problem: Please give the result for TTGTGTTTTATTATTTTATTATTACTATTATAATGT [GTGCAC_negctrl_site484] too.
Result: 9.62

Problem: Next up: AAAAAAAACAGACACACACACACATATACATACATA [CACACA_site2665]
Result: 10.2

Problem: One more sequence: TAAATAAAAAGACACACACACATATTTATATTTATA [CACACA_site7135]
Result: 10

Problem: What would you report for AATTAATATTTAAATTGTACATGAACATTTTAATGT [XGTACX_site462] ?
Result: 8.97

Problem: Cool, now CATATTTTTTCTTAAACACACACATATATATATATA [CACACA_site8920]
Result: 9.61

Problem: Input TATATATTATAAAAGAGTACAGAAAGAAAAAAAAAT [XGTACX_site8305]
Result: 9.54

Problem: What would you report for AAGTAAAAAAATAGCACACACACAAAAACACAGACA [CACACA_site4839] ?
Result: 10.2

Problem: Moving on to CGCAACACTATTTGGGTGCTCTTCAAAAAAAAAAAA [GTGCAC_site9598]
Result: 8.56

Problem: Also, AATATAAAAATGTTTACACACACACGGAAATATATT [CACACA_site7226] please.
Result: 10.1

Problem: Please do the same for ATATGTATAAAAATCCGTACATAAGTGTGCGTATAT [XGTACX_site4376] as well.
Result: 9.32

Problem: Try TATATTGATGATGATAGTACGTATGATTAGAAAAAA [XGTACX_site8989] next.
Result: 9.18

Problem: // repeat for CAATATAAAAAACACACGCACACAAAAAAAAAAAAA [CACACA_site3521] and report
Result: 9.79

Problem: Now give it for CACAGATAAATTAACACACACACACCCATATATATA [CACACA_site3960] too.
Result: 10.1

Problem: Cool, now ATATAGTAAATTGGTAGTACATAAAATGATTTTATG [XGTACX_site4143]
Result: 9.26

Problem: Note, next up: AATACAATTTTTAACACACACACAATAATACAGATA [CACACA_site4823]
Result: 10.2

---

For each entry below, report its gcPBM binding intensity (ln) value.
System: PF3D7_0420300 AP2 domain 1 (GST-tagged)
Assay Details: gcPBM binding intensity (ln(normalized median fluorescence intensity)); higher = stronger DNA binding
Over roughly 25,000 sequences, “ln(normalized median fluorescence intensity)” has its median near 9.3; the highest 2% begin near 10. The list comes from a sample in which the highest values are over-represented; it also holds close analogues and randomly drawn sequences.
Write no unit; give the number alone.

Problem: Find the recorded gcPBM binding intensity (ln) belonging to GTTTCCTTAATATTCACACACATATCTATAATATAT [CACACA_site6959] and report it.
Result: 9.87

Problem: Try the sequence AAAAAGGGTATTATTACACACACGTAAATATTAATA [CACACA_site101]
Result: 9.61

Problem: Also TTTTTATAACAGCTTAGTACATATAAGAATTCTTGC [XGTACX_site5890] ?
Result: 8.9

Problem: What do we get for TATGTGCACCCATATACACACACAAATACAATGATA [CACACA_site8295] ?
Result: 9.81

Problem: Please do the same for ATATTTTATATGTTCACACATACATAAACATATTTT [CACACA_site4948] as well.
Result: 9.34

---

Tested on: PF3D7_0420300 AP2 domain 1 (GST-tagged)
Assay Details: gcPBM binding intensity (ln(normalized median fluorescence intensity)); higher = stronger DNA binding
Whole data set: some 25,000 sequences, median “ln(normalized median fluorescence intensity)” near 9.3, cut for the highest 2% near 10. The sample holds the highest values, similar sequences and a random draw of the others, so the mix is not that of the screen.
Quantity Measured: gcPBM binding intensity (ln)
Keep it simple and answer with nothing but the number.

Problem: For the sequence TAGATATATAGACACACACACATTAATACCTATATT [CACACA_site7605] , what gcPBM binding intensity (ln) is on record?
Result: 10.1

Problem: Repeat with ACATATACATATATATGTACATAAATATATATATAT [XGTACX_site8630]
Result: 9.17

Problem: // same read-out, input: AATATAAATAAAAACACACACAATGGTACAGATATA [CACACA_site5930]
Result: 10.1

Problem: Item: TTGTATATACTATACACACACATACATACATACATA [CACACA_site814]
Result: 9.85

Problem: Same question, TATATTTATTTATATACACACACTTGTATAAAAAAT [CACACA_site2036] this time
Result: 9.4

Problem: Cool, now CAGTAGTATATACTATGTACATATTTATATTATATT [XGTACX_site4964]
Result: 9.22

Problem: Another sequence to look at: AACTTGTATTTATACACACACACACTGTCTTTTTTT [CACACA_site7009]
Result: 10.3
